# System: HT-29
# Measurement Protocol: In vitro tumor cell proliferation, HT-29
# Format: cell-based, human
# Measurement Parameters: HT-29; many values given with an undefined *; dihydrochloride; read-out: In vitro Tumor Cell Proliferation (IC50, μM) Colon HT-29
Where a name gives a salt, the structure may show the parent alone.
Measurement Label: IC50 (µM)

INSERT INTO results (compound, measurement_label, quantitative_result) VALUES
  ('N[C@H]1CC[C@H](Nc2nc(NNc3ccc(Cl)cc3Cl)c3ncn(C4CCCC4)c3n2)CC1 [Example 147, dihydrochloride]', 'IC50', 2),
  ('COc1cccc(CNc2nc(N[C@H]3CC[C@H](N)CC3)nc3c2ncn3C2CCCC2)c1OC [Example 13, dihydrochloride]', 'IC50', 3.4),
  ('COc1ccc(CNc2nc(N[C@H]3CC[C@H](N)CC3)nc3c2ncn3C2CCCC2)cc1 [Example 8, dihydrochloride]', 'IC50', 1.4),
  ('COCCCCNc1nc(N[C@H]2CC[C@H](N)CC2)nc2c1ncn2C1CCCC1 [Example 29, dihydrochloride]', 'IC50', 4.2),
  ('COCCNc1nc(N[C@H]2CC[C@H](N)CC2)nc2c1ncn2C1CCCC1 [Example 16, dihydrochloride]', 'IC50', 6.3),
  ('COc1ccccc1CNc1nc(N[C@H]2CC[C@H](N)CC2)nc2c1ncn2C1CCCC1 [Example 12, dihydrochloride]', 'IC50', 8.5),
  ('N[C@H]1CC[C@H](Nc2nc(NCc3ccc(C(F)(F)F)cc3)c3ncn(C4CCCC4)c3n2)CC1 [Example 1, dihydrochloride]', 'IC50', 1.6);
